Recorded values, source patent US8946426B2.

system: Aβtotal; test: Method 2: Aβtotal Alphalisa in supernatant of SKNBE2 cells carrying APP 695-wild type (Table 7c); type: cell-based; settings: Method 2, Alphalisa, overnight incubation
pIC50: −log10 of the molar value.
// reported pIC50 for each item listed

Short answer for COc1cc(Nc2nccn3cc(C)nc23)ccc1-c1ocnc1C : pIC50 was < 5.00

Short answer for Cc1ncc(-c2ccc(Nc3cccn4cc(-c5cc(C(F)(F)F)ccc5C)nc34)cc2)o1 : pIC50 was < 5.00

Short answer for COc1nc(Nc2cccc3c2nc(-c2ccc(F)cc2)n3C)ccc1-c1cnn(C)c1 : pIC50 was < 5.00

Short answer for Cc1cc(-c2ccc(Nc3cccc4c3nc(-c3ccc(F)cc3)n4C)cc2)ccn1 : pIC50 was 5.15

* * *

tested on: Aβ42; assay: In vivo efficacy: Aβ42 lowering in brain after single oral dose (Table 8); conditions: mouse brain soluble fraction, ELISA, compared to untreated animals; also: test concentration or dose not given here
// reported Aβ42 (% Ctrl)_Mean for each item listed
Note: unit % Ctrl is implicit; provide only the numeric part.

>>> reported_result("COc1cccc(-c2nc3c(Nc4ccc(-c5cnc(C)o5)c(OC)c4)cccc3n2C)c1 [Compound 63]")
56
>>> reported_result("COc1cc(Nc2cccc3c2nc(-c2ccc(F)cc2)n3C(C)C)ccc1-c1cnc(C)o1.Cl.Cl [Compound 25]")
76

Short answer for Cc1ncc(-c2ccc(Nc3cc(C(F)(F)F)cc4c3nc(-c3ccc(F)cc3)n4C)cn2)o1 [Compound 101] : Aβ42 (% Ctrl)_Mean was 77
